The entries below are paired with their reported efflux ratio at 2 h.
- Protocol details: Efflux ratio of apparent permeability across basolateral to apical side over apical to basolateral side in human Caco2 cells after 2 hrs by LC/MS/MS analysis
- Assay type: ADME, cell-based
- Condition set: Caco-2
Measured quantity: efflux ratio at 2 h

Structure notation | Experimental result
CC(=O)C(=CN(C)C)C(C)=O | > 2
C/C(=N\NC1=NCCN1)c1cnn(-c2ccc(C#CC3CCCC3)cc2)c1C | 1.5
C/C(=N\NC(=N)N)c1cnn(-c2ccc(C#CC3CCCC3)cc2)c1C | 1

---

- Test system: Salmonella enteritidis
- Protocol details: Antibacterial activity against Salmonella enteritidis ATCC 14028 clinical isolates after 18 to 20 hrs in aerobic condition by CLSI-based broth microdilution assay
- Format: functional, Salmonella enterica subsp. enterica serovar Enteritidis
- Condition set: Salmonella enterica
Listing: MIC of selected molecules

Structure notation | Assayed target | MIC (µg/mL)
C/C(=N\NC1=NCCN1)c1cnn(-c2ccc(C#CC3CCCC3)cc2)c1C | Salmonella enteritidis | 32
CCCCCC#Cc1ccc(-n2ncc(/C(C)=N/NC(=N)N)c2C)cc1 | Salmonella enteritidis | 16
C/C(=N\NC(=N)N)c1cnn(-c2ccc(C#CC3(O)CCCCC3)cc2)c1C | Salmonella enteritidis | 32
